Reference for the values: the METLIN SMRT retention time set (Domingo-Almenara et al. 2019)

Please provide measured RP-LC retention time for the entries that follow.
PROCEDURE DETAILS: gradient 5% acetonitrile 3 min, to 50% in 2 min, to 85% in 15 min, held 3 min, 100 µL/min
EXPERIMENTAL PARAMETERS: column: Zorbax Extend-C18 2.1 x 50 mm; eluents: water / acetonitrile, 0.1% formic acid
One number for each entry, in s.

Example results:
CCCNC(=O)C1CCN(c2ccc(SCC(=O)Nc3ccccc3Br)nn2)CC1 | 670
O=C(NCc1cccs1)c1cnn2c(-c3ccc(Cl)cc3)ccnc12 | 983
CN1c2cc(C(=O)NC3CCCCC3)ccc2C(=O)N2CCCCC21 (stereo not drawn) | 824
CC(C)CN1CCN(C(=O)c2cc3c(s2)CCN(C(=O)c2ccc(Cl)cc2)C3)CC1 | 664
Cc1ccc2c(c1)N(S(C)(=O)=O)CCC(C(=O)N1CCCCC1)O2 (stereo not drawn) | 862

Please state RP-LC retention time for every compound in the list that follows.
1. CCc1ccc(NC(=O)C2CCN(S(=O)(=O)c3c(C)[nH]c(C)c3C(=O)N3CCCC3)CC2)cc1
2. O=C(Nc1ccccc1F)C1CCN(S(=O)(=O)c2cc(-c3noc(C4CCC4)n3)cs2)CC1
3. CCCN(CCc1ccccc1)C1CCc2c(O)cccc2C1 (stereo not drawn)
4. COc1cccc(OC)c1OCC(O)CN1CCN(c2ccccc2)CC1 (stereo not drawn)
5. CCc1nc2cc(N3CCC(C(=O)NCc4ccc(OC)cc4)CC3)cnc2nc1CC
6. Cc1cccc(-n2c(Cc3cccn3C)nnc2SCC(=O)NCC2CCCO2)c1C (stereo not drawn)

(A)
729
958
768
668
833
776

Please state RP-LC retention time for every compound in the list that follows.
1. O=[N+]([O-])c1ccc(CSc2nnc(-c3ccncc3)n2-c2ccccc2)cc1
2. CC(C)CNC(=O)N1CCC(CCOc2ccncc2)CC1

(A)
706
594

Please state RP-LC retention time for every compound in the list that follows.
1. COC(=O)c1ccc(OC)c(Cn2cnc3c(-c4cccc(F)c4)csc3c2=O)c1
2. COc1nn(C)cc1C(=O)Nc1cccc(-c2cn3c(n2)SCC3)c1
3. CCOC(=O)c1[nH]c(C)c(C(=O)N2CCC(CC(=O)N(C)Cc3ccco3)CC2)c1C

(A)
1: 1080; 2: 566; 3: 729

Please state RP-LC retention time for every compound in the list that follows.
1. O=C(CSc1nnc2c3cc(-c4ccc(F)cc4)nn3ccn12)Nc1ccccc1Br
2. CC(C)n1c(N2CCN(C(=O)c3ccncc3)CC2)cc(=O)n(C(C)C)c1=O
3. Cc1cc2[nH]c(C(=O)Nc3ccc(Cl)cc3C)c(CN3CCOCC3)c2s1
4. Cn1nccc1-c1cccc(-c2noc(C3CC(=O)N(c4cccc(Cl)c4)C3)n2)c1 (stereo not drawn)
5. COc1ccc(-c2nc3cnccn3c2Nc2ccc(C(=O)NC3CCCCC3)cc2)cc1OC
6. O=C(Nc1ccc(C(F)(F)F)cc1)N1CC(n2cnnc2-c2ccccc2)C1

(A)
935
601
738
978
755
784

====

PROCEDURE DETAILS: gradient 5% acetonitrile 3 min, to 50% in 2 min, to 85% in 15 min, held 3 min, 100 µL/min
EXPERIMENTAL PARAMETERS: column: Zorbax Extend-C18 2.1 x 50 mm; eluents: water / acetonitrile, 0.1% formic acid
Label MET when RP-LC retention time is at or above 800 s; otherwise label NOT MET.

The following compounds have reported results that may help.
COc1ccc(OC)c(S(=O)(=O)N2CCCC(C(=O)NCc3ccccn3)C2)c1 (centres undefined) | NOT MET
CC(C)CCNC(=O)CC1Sc2ncccc2N(CC(C)C)C1=O (centres undefined) | MET

(Q) Quick check, RP-LC retention time >= 800 s? "Cc1ccccc1CN1C[C@@H]2C(=O)N(CCc3ccccc3)C(=O)[C@@H]2C1"
(A) MET

(Q) Quick check, RP-LC retention time >= 800 s? "O=C(NCc1cccnc1)C1CCN(c2nc3ccc(-c4cncnc4)nc3s2)CC1"
(A) NOT MET

====

PROCEDURE DETAILS: gradient 5% acetonitrile 3 min, to 50% in 2 min, to 85% in 15 min, held 3 min, 100 µL/min
EXPERIMENTAL PARAMETERS: column: Zorbax Extend-C18 2.1 x 50 mm; eluents: water / acetonitrile, 0.1% formic acid
Label yes when RP-LC retention time is at or above 700 s; otherwise label no.

(Q) Quick check, RP-LC retention time >= 700 s? "CCN(CC)c1cc2c(cc1NC(=O)c1ccco1)n(C)c(=O)c(=O)n2C"
(A) yes

(Q) Quick check, RP-LC retention time >= 700 s? "COCCNC(=O)c1nccnc1NC(=O)c1ccc(C)cc1"
(A) yes

(Q) Quick check, RP-LC retention time >= 700 s? Cc1ccc(NC(=O)C2CCc3sc(C(=O)N4CCOCC4)cc3C2)cc1 (centres undefined)
(A) yes

(Q) Quick check, RP-LC retention time >= 700 s? CN(Cc1ccccc1)C(=O)C1CC(=O)N(CCc2c[nH]c3ccc(Cl)cc23)C1 (centres undefined)
(A) yes

(Q) Quick check, RP-LC retention time >= 700 s? "COc1ccc(CC(=O)Nc2cc(-c3cn4cccnc4n3)ccc2OC)cc1"
(A) no

(Q) Quick check, RP-LC retention time >= 700 s? "CCc1nc(-c2ccc3c(c2)CCN3C(=O)Cc2cc(OC)cc(OC)c2)no1"
(A) yes

(Q) Quick check, RP-LC retention time >= 700 s? COc1ccc(Cl)cc1NC(=O)CN1CCCC(COCc2ccccc2)C1 (centres undefined)
(A) no

(Q) Quick check, RP-LC retention time >= 700 s? COc1ccc(-c2cc(C(=O)Nc3cc(C)cc(C)c3)nn2C2CCS(=O)(=O)C2)cc1 (centres undefined)
(A) yes

====

PROCEDURE DETAILS: gradient 5% acetonitrile 3 min, to 50% in 2 min, to 85% in 15 min, held 3 min, 100 µL/min
EXPERIMENTAL PARAMETERS: column: Zorbax Extend-C18 2.1 x 50 mm; eluents: water / acetonitrile, 0.1% formic acid
Please provide measured RP-LC retention time for the entries that follow.
Numbers only, in s.

CCCN1C(=O)C2CCC(=O)N2c2ccc(C(=O)Nc3cccc(SC)c3)cc21 (centres undefined) | 879

Please state RP-LC retention time for every compound in the list that follows.
1. CCOc1ccc(NC(=O)C2CCCN(c3ncnc4c3nc3n4CCCCC3)C2)cc1 (centres undefined)
2. COc1ccc(NC(=O)N2CCCC2c2nc(-c3cccc(Cl)c3)no2)c(OC)c1 (centres undefined)
3. Cn1cccc1C(=O)C(=O)Nc1cccc2c1CCCC2

(A)
[732, 1070, 928]

Please state RP-LC retention time for every compound in the list that follows.
1. O=C(NCc1ccc(F)cc1)C1CCN(S(=O)(=O)c2cc(C(=O)N3CCOCC3)cs2)CC1
2. Cc1onc(-c2ccc(Br)s2)c1C(=O)NCCCN1CCN(C)CC1
3. Cc1nn(-c2ccc(F)cc2)c(C)c1S(=O)(=O)N1CCC(C(=O)NC(C)(C)C)CC1
4. Cc1noc(C)c1S(=O)(=O)N1CCC(C(=O)NCCc2csc(-c3cccs3)n2)CC1
5. COCCn1nnnc1C1CC2(CCOCC2)C(=O)N1Cc1ccc(Cl)cc1 (centres undefined)

(A)
[739, 611, 888, 858, 904]

Please state RP-LC retention time for every compound in the list that follows.
1. Cc1ccc2nc(C)c(NC(=O)c3ccccc3C(F)(F)F)c(=O)n2c1
2. Cc1ccc(/C=C/c2nc(-c3cccc(-c4ccnn4C)c3)no2)cc1
3. CC1CCN(S(=O)(=O)c2ccc(-c3nnc(C(=O)N4CCC5(CC4)OCCO5)o3)cc2)CC1
4. Cc1ccccc1CNC(=O)C1c2ccccc2CC(=O)N1C (centres undefined)
5. CCn1c(=O)c(N2CCCC(C(=O)NCc3cccc(Br)c3)C2)nc2ccccc21 (centres undefined)
6. CCN1c2ccc(C)cc2C(=O)NC12CCN(C(=O)c1cccc(Cl)c1)CC2
7. COc1ccc(CCNc2nc(-c3ccc(OC)c(OC)c3)cs2)cc1OC

(A)
620
1270
952
755
1080
603
728

Please state RP-LC retention time for every compound in the list that follows.
1. Cn1c(CCNC(=O)c2ccc(C(C)(C)C)cc2)nc2cccnc21
2. Cc1cc(C)cc(OCc2nc(CCN(C)C(=O)Nc3ccccc3)no2)c1
3. O=C(Cn1cnc(-c2cccs2)cc1=O)NCc1ccccc1OC(F)(F)F

(A)
1. 705
2. 970
3. 801

====

Please provide measured RP-LC retention time for the entries that follow.
PROCEDURE DETAILS: gradient 5% acetonitrile 3 min, to 50% in 2 min, to 85% in 15 min, held 3 min, 100 µL/min
EXPERIMENTAL PARAMETERS: column: Zorbax Extend-C18 2.1 x 50 mm; eluents: water / acetonitrile, 0.1% formic acid
Give bare numbers, in s.

Example results:
COc1ccc(-c2nc3cnccn3c2Nc2ccc(C(=O)NCCN(C)C)cc2)cc1OC | 576
CCc1noc(C2CCCCN2Cc2nc(-c3cccnc3)no2)n1 (centres undefined) | 821
CC(NC(=O)c1ccccc1)c1nc(-c2ccc(NS(=O)(=O)c3cccs3)cc2)no1 (centres undefined) | 890
O=C(CCS(=O)(=O)c1ccccc1)Nc1cc(-c2ccccc2)nn1CCO | 695
CN(C)c1ncncc1N1CCC(C(=O)N2CCN(c3ccccc3F)CC2)CC1 | 650

Please state RP-LC retention time for every compound in the list that follows.
1. Cc1ccc(Sc2nccnc2N2CCCC(C(=O)NCc3ccccc3C)C2)cc1 (centres undefined)
2. Cc1ccnc(Nc2nc(-c3ccc(C)c(C)c3)cs2)c1

(A)
1150
902

Please state RP-LC retention time for every compound in the list that follows.
1. COc1ccc(-c2noc(C3CCCN3C(=O)Nc3cc(OC)cc(OC)c3)n2)cc1 (centres undefined)
2. CC1(C)CC(=O)c2c(nc(N3CCN(c4ccccn4)CC3)nc2Nc2ccccc2)C1
3. COc1ccc(N2C(=O)C3N=NN(Cc4nc(-c5cccc(C)c5)no4)C3C2=O)cc1 (centres undefined)
4. COCc1nc(C2CCN(S(=O)(=O)c3ccc4c(c3)OCCO4)C2)no1 (centres undefined)
5. CN(C)c1cccc(C(=O)N2CCN(c3cc(-c4ccccc4)[nH]n3)CC2)c1
6. COCCN1C(=O)[C@H]2CN(Cc3ccc(F)cc3)C[C@H]2C1=O

(A)
941
841
993
779
690
585

Please state RP-LC retention time for every compound in the list that follows.
1. CN(C1CCOCC1)C1CCN(C(=O)c2ccc(Cl)cc2)CC1
2. O=C(NCc1ccccn1)C1=C2CCCN2c2ccc(F)cc2S1(=O)=O
3. Cc1nn2c(CNS(=O)(=O)c3ccc(F)c(F)c3)c(-c3ccccc3)nc2s1
4. O=C(Nc1ccccc1-c1nc2ccccc2[nH]1)c1cccc([N+](=O)[O-])c1

(A)
1: 589; 2: 1030; 3: 906; 4: 1040

Please state RP-LC retention time for every compound in the list that follows.
1. COc1ccc(-n2nc(N3CCCC(C(=O)NCc4ccco4)C3)ccc2=O)cc1 (centres undefined)
2. CC1CCc2nc3ncn(CC(=O)Nc4cccc(C#N)c4)c(=O)c3cc2C1 (centres undefined)

(A)
1: 740; 2: 738
